These entries and their values trace back to the NIST ThermoML archive (doi:10.1021/je0604232).

experiment: molar heat capacity at constant pressure; conditions: 308.15 K; 101 kPa; Liquid
valueType: molar heat capacity at constant pressure (J/K/mol)

[
  {
    "compound": "CNCCO [2-(methylamino)ethanol]",
    "readoutValue": 199
  },
  {
    "compound": "NCCCO [3-amino-1-propanol]",
    "readoutValue": 207
  },
  {
    "compound": "NCCNCCO [N-(2-aminoethyl)ethanolamine]",
    "readoutValue": 284
  },
  {
    "compound": "CC(O)CN (stereo not given) [1-amino-2-propanol]",
    "readoutValue": 213
  },
  {
    "compound": "CN(C)CCO [2-(N,N-dimethylamino)ethanol]",
    "readoutValue": 215
  }
]

###

test: molar heat capacity at constant pressure; conditions: 333.15 K; 101 kPa; Liquid
valueType: molar heat capacity at constant pressure (J/K/mol)

[
  {
    "compound": "CNCCO",
    "molar heat capacity at constant pressure / J/K/mol": 206
  },
  {
    "compound": "CC(O)CN (stereo not given)",
    "molar heat capacity at constant pressure / J/K/mol": 221
  },
  {
    "compound": "NCCCO",
    "molar heat capacity at constant pressure / J/K/mol": 211
  },
  {
    "compound": "CN(C)CCO",
    "molar heat capacity at constant pressure / J/K/mol": 223
  },
  {
    "compound": "NCCNCCO",
    "molar heat capacity at constant pressure / J/K/mol": 290
  }
]

###

test: molar heat capacity at constant pressure; settings: 313.15 K; 101 kPa; Liquid
valueType: molar heat capacity at constant pressure (J/K/mol)

[
  {
    "molecule": "CC(O)CN (stereo not given)",
    "molar heat capacity at constant pressure (J/K/mol)": 214
  },
  {
    "molecule": "NCCNCCO",
    "molar heat capacity at constant pressure (J/K/mol)": 285
  },
  {
    "molecule": "CN(C)CCO",
    "molar heat capacity at constant pressure (J/K/mol)": 217
  },
  {
    "molecule": "CNCCO",
    "molar heat capacity at constant pressure (J/K/mol)": 200
  },
  {
    "molecule": "NCCCO",
    "molar heat capacity at constant pressure (J/K/mol)": 208
  }
]

###

test: molar heat capacity at constant pressure; settings: 353.15 K; 101 kPa; Liquid
valueType: molar heat capacity at constant pressure (J/K/mol)

[
  {
    "compound": "CN(C)CCO [2-(N,N-dimethylamino)ethanol]",
    "molar heat capacity at constant pressure [J/K/mol]": 226
  },
  {
    "compound": "CC(O)CN (stereo not given) [1-amino-2-propanol]",
    "molar heat capacity at constant pressure [J/K/mol]": 230
  },
  {
    "compound": "NCCCO [3-amino-1-propanol]",
    "molar heat capacity at constant pressure [J/K/mol]": 217
  },
  {
    "compound": "CNCCO [2-(methylamino)ethanol]",
    "molar heat capacity at constant pressure [J/K/mol]": 212
  },
  {
    "compound": "NCCNCCO [N-(2-aminoethyl)ethanolamine]",
    "molar heat capacity at constant pressure [J/K/mol]": 296
  }
]

###

experiment: molar heat capacity at constant pressure; conditions: 348.15 K; 101 kPa; Liquid
valueType: molar heat capacity at constant pressure (J/K/mol)

[
  {
    "compound": "NCCNCCO [N-(2-aminoethyl)ethanolamine]",
    "molar heat capacity at constant pressure, J/K/mol": 295
  },
  {
    "compound": "CNCCO [2-(methylamino)ethanol]",
    "molar heat capacity at constant pressure, J/K/mol": 210
  },
  {
    "compound": "CN(C)CCO [2-(N,N-dimethylamino)ethanol]",
    "molar heat capacity at constant pressure, J/K/mol": 224
  },
  {
    "compound": "NCCCO [3-amino-1-propanol]",
    "molar heat capacity at constant pressure, J/K/mol": 216
  },
  {
    "compound": "CC(O)CN (stereo not given) [1-amino-2-propanol]",
    "molar heat capacity at constant pressure, J/K/mol": 228
  }
]

###

assay: molar heat capacity at constant pressure; conditions: 318.15 K; 101 kPa; Liquid
valueType: molar heat capacity at constant pressure (J/K/mol)

[
  {
    "compound": "NCCCO",
    "readoutValue": 208
  },
  {
    "compound": "NCCNCCO",
    "readoutValue": 286
  },
  {
    "compound": "CN(C)CCO",
    "readoutValue": 219
  },
  {
    "compound": "CNCCO",
    "readoutValue": 202
  },
  {
    "compound": "CC(O)CN (stereo not given)",
    "readoutValue": 215
  }
]

###

assay: molar heat capacity at constant pressure; settings: 343.15 K; 101 kPa; Liquid
valueType: molar heat capacity at constant pressure (J/K/mol)

[
  {
    "compound": "NCCNCCO",
    "readoutValue": 293
  },
  {
    "compound": "CNCCO",
    "readoutValue": 208
  },
  {
    "compound": "CC(O)CN (stereo not given)",
    "readoutValue": 225
  },
  {
    "compound": "NCCCO",
    "readoutValue": 214
  },
  {
    "compound": "CN(C)CCO",
    "readoutValue": 223
  }
]

###

experiment: molar heat capacity at constant pressure; settings: 338.15 K; 101 kPa; Liquid
valueType: molar heat capacity at constant pressure (J/K/mol)

[
  {
    "compound": "CC(O)CN (stereo not given) [1-amino-2-propanol]",
    "molar heat capacity at constant pressure / J/K/mol": 223
  },
  {
    "compound": "NCCNCCO [N-(2-aminoethyl)ethanolamine]",
    "molar heat capacity at constant pressure / J/K/mol": 292
  },
  {
    "compound": "NCCCO [3-amino-1-propanol]",
    "molar heat capacity at constant pressure / J/K/mol": 213
  },
  {
    "compound": "CN(C)CCO [2-(N,N-dimethylamino)ethanol]",
    "molar heat capacity at constant pressure / J/K/mol": 223
  },
  {
    "compound": "CNCCO [2-(methylamino)ethanol]",
    "molar heat capacity at constant pressure / J/K/mol": 207
  }
]

###

assay: molar heat capacity at constant pressure; conditions: 303.15 K; 101 kPa; Liquid
valueType: molar heat capacity at constant pressure (J/K/mol)

A selection of reference data follows.
[
  {
    "compound": "CC(O)CN (stereo not given)",
    "molar heat capacity at constant pressure / J/K/mol": 209
  },
  {
    "compound": "CN(C)CCO",
    "molar heat capacity at constant pressure / J/K/mol": 213
  },
  {
    "compound": "NCCCO",
    "molar heat capacity at constant pressure / J/K/mol": 204
  }
]

A. CNCCO
B. NCCNCCO
Problem: Between A and B , which one shows the smaller molar heat capacity at constant pressure number? Give the label under which the chosen entry appears.
Result: A
(A: 194 J/K/mol, B: 279 J/K/mol)

###

assay: molar heat capacity at constant pressure; conditions: 328.15 K; 101 kPa; Liquid
valueType: molar heat capacity at constant pressure (J/K/mol)

[
  {
    "compound": "CNCCO",
    "unitSymbol": "J/K/mol",
    "molar heat capacity at constant pressure": 205
  },
  {
    "compound": "NCCNCCO",
    "unitSymbol": "J/K/mol",
    "molar heat capacity at constant pressure": 289
  },
  {
    "compound": "CC(O)CN (stereo not given)",
    "unitSymbol": "J/K/mol",
    "molar heat capacity at constant pressure": 218
  },
  {
    "compound": "CN(C)CCO",
    "unitSymbol": "J/K/mol",
    "molar heat capacity at constant pressure": 222
  },
  {
    "compound": "NCCCO",
    "unitSymbol": "J/K/mol",
    "molar heat capacity at constant pressure": 210
  }
]

###

test: molar heat capacity at constant pressure; details: 323.15 K; 101 kPa; Liquid
valueType: molar heat capacity at constant pressure (J/K/mol)

[
  {
    "compound": "CC(O)CN (stereo not given)",
    "molar heat capacity at constant pressure (J/K/mol)": 217
  },
  {
    "compound": "NCCCO",
    "molar heat capacity at constant pressure (J/K/mol)": 209
  },
  {
    "compound": "NCCNCCO",
    "molar heat capacity at constant pressure (J/K/mol)": 287
  },
  {
    "compound": "CNCCO",
    "molar heat capacity at constant pressure (J/K/mol)": 203
  },
  {
    "compound": "CN(C)CCO",
    "molar heat capacity at constant pressure (J/K/mol)": 221
  }
]
